experiment description: AUC (0 to t) in Beagle dog at 3 mg/kg, po by LC-MS/MS analysis
Format: ADME, organism-based, Canis lupus familiaris
cond: in vivo
recorded endpoint: AUC(0-t) (ng·h/mL)
Expressed in ng·h/mL, but write only the number.

Item Cl.Clc1ccc(OC[C@@H]2C[C@H]3C[C@H]3N2)cn1 has what recorded AUC(0-t)? 4350

---

experiment description: Apparent permeability in human Caco2 cells
Type: ADME, cell-based
cond: caco-2
recorded endpoint: Papp (nm/s)
Expressed in nm/s, but write only the number.

Item Cl.Clc1ccc(OC[C@@H]2C[C@H]3C[C@H]3N2)cn1 has what recorded Papp? 688
